Exercise: state measured hERG current change (%, negative = inhibition) at 10uM for each of the compounds provided.
- measured_target: human ether-à-go-go-related gene (hERG) potassium channel (human, UniProt Q12809);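 also: peak tail current of the secondary pulse compared with the same well before compound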
- Sequence (Q12809 whole entry, looked up): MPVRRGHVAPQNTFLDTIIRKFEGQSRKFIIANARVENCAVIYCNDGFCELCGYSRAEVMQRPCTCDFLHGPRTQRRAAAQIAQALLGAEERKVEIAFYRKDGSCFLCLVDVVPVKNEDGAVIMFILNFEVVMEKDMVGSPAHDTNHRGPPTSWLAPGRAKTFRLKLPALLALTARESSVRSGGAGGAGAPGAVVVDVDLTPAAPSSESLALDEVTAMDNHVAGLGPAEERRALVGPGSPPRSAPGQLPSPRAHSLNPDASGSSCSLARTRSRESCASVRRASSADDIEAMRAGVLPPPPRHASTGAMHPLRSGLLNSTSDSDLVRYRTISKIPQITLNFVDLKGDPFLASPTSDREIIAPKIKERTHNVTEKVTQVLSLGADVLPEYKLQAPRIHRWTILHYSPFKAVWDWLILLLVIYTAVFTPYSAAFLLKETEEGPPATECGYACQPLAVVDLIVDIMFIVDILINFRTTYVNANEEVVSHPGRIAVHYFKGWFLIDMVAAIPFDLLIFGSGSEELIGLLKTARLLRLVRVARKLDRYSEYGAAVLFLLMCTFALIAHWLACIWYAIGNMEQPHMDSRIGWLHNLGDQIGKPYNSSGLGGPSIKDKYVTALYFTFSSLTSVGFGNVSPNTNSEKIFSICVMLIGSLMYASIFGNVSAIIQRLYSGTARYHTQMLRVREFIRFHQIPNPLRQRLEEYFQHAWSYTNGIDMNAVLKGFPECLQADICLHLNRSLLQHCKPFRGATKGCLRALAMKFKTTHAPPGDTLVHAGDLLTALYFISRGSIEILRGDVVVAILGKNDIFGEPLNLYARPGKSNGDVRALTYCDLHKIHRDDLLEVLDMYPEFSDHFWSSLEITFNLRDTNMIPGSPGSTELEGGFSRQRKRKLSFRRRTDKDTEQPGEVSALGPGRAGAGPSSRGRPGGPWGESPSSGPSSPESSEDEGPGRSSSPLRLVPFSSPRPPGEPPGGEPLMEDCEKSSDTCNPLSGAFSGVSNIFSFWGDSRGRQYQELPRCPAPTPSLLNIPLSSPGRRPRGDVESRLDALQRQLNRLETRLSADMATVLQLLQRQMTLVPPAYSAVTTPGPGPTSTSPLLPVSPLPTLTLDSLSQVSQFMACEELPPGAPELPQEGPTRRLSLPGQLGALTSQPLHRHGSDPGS
- assay_summary: primary screen, population patch clamp on CHO cells stably expressing hERG; higher = less effect of the substance
The campaign covered roughly 310,000 compounds. About 14,000 (4.5%) showed an effect of 50% or more. Effects have a minus sign here. This is one part of a sample in which strong results are shown more often than they occur.
Mention the unit after the number when you answer.

Worked examples, 3 compounds total:
| compound | measured_target | reported |
| --- | --- | --- |
| CCn1cc(C(=O)NCCCN2CCCC(C)C2)c(=O)c2cc(S(=O)(=O)N3CCOCC3)ccc21 (stereo not shown) | human ether-à-go-go-related gene (hERG) potassium channel (human, UniProt Q12809) | 14.6% |
| CN(C)CCCN(C(=O)c1ccc2c(c1)CCCC2)c1nc2ccc(F)cc2s1.Cl | human ether-à-go-go-related gene (hERG) potassium channel (human, UniProt Q12809) | -66.9% |
| COc1cccc(CC2(CO)CCCN(S(=O)(=O)N(C)C)C2)c1 (stereo not shown) | human ether-à-go-go-related gene (hERG) potassium channel (human, UniProt Q12809) | 42.4% |

Dear colleague, could you please provide hERG current change (%, negative = inhibition) at 10uM for the compounds listed below?
1. O=[n+]1c2c(n([O-])c3cc(Br)ccc31)CCC2
2. O=C(CSc1ncccc1-c1nc2ccccc2[nH]1)Nc1ccc2c(c1)OCCO2
3. O=C(O)CCS(=O)(=O)c1ccc(-c2ccccc2)cc1
4. CCn1c(CCNC(=O)c2ccccc2Cl)n[nH]c1=S
5. COc1ccc(/C=N/NC(=O)c2ccc(O)cc2)cc1CN1CCCc2ccccc21
6. CCOc1ccc(N2C(=O)C3ON(c4ccccc4)C(c4cccs4)C3C2=O)cc1 (stereo not shown)
7. CCCn1c(CC)nc([N+](=O)[O-])c1S(=O)(=O)c1ccccc1

Key:
["-2.98%", "-30.8%", "19.3%", "12%", "0.817%", "7.35%", "-23.8%"]

Dear colleague, could you please provide hERG current change (%, negative = inhibition) at 10uM for the compounds listed below?
1. O=C(c1ccccc1)c1ccc(NCCCn2ccnc2)c([N+](=O)[O-])c1
2. COc1ccc(/C=N/NC(=O)c2ccc(OC)c(OC)c2)cc1COc1c(F)c(F)c(F)c(F)c1F
3. COc1ccc(/C=N/NC(=O)c2ccc(F)cc2)cc1CN1CCc2cc(OC)c(OC)cc2C1C (stereo not shown)
4. O=C(NCCNc1ccc([N+](=O)[O-])cc1)c1ccccc1Br
5. CC(C)NS(=O)(=O)c1ccc(NCCCn2ccnc2)c([N+](=O)[O-])c1
6. CC1CCCN(CCCNC(=O)c2cn(C)c3ccc(S(=O)(=O)N(C)C4CCCCC4)cc3c2=O)C1 (stereo not shown)

Key:
1. -81.3%
2. 5.91%
3. -88.3%
4. -43.3%
5. -1.68%
6. -71.4%

Dear colleague, could you please provide hERG current change (%, negative = inhibition) at 10uM for the compounds listed below?
1. COc1ccc(-[n+]2c(-c3ccccc3)cc(-c3ccccc3)cc2-c2ccccc2)cc1.[O-][Cl+3]([O-])([O-])[O-]
2. CN(C1CCCCC1)S(=O)(=O)c1ccc2c(c1)c(=O)c(C(=O)NCCCN1CCCC1)cn2C
3. O=C(O)CCC(=O)Nc1sc2c(c1C(=O)NC1CCCC1)CCCC2

Key:
["-71.9%", "-25.6%", "5.76%"]
